All figures here come from patent US8541576B2.

Below are IC50 values measured for Full-length human PIM-2 (Homo sapiens).
Recorded metric: IC50 (nM)

INSERT INTO results (molecule, relation_operator, readout_value) VALUES
  ('NC(=O)c1nn(C2CCC(N)CC2)c2c1ccc1cnc(-c3ccsc3)nc12 (stereo not drawn)', '=', 43),
  ('CSc1ncc2ccc3c(C(N)=O)nn([C@@H]4C[C@H]5CC[C@@H](C4)N5)c3c2n1', '=', 33),
  ('CN(C)c1ncc2ccc3c(C(N)=O)nn(C(C)(C)C)c3c2n1', '=', 21),
  ('Cn1nc(C(N)=O)c2c1-c1nc(N3CCCCC3)ncc1CC2 [Ref. Compound 1, reference compound]', '>', 10000),
  ('CSc1ncc2ccc3c(C(N)=O)nn(C4CN5CCC4CC5)c3c2n1 (stereo not drawn)', '=', 28),
  ('CN1CCN(c2ccc(Oc3ncc4ccc5c(C(N)=O)nn(C)c5c4n3)c(Br)c2)CC1', '=', 2400),
  ('CSc1ncc2ccc3c(C(N)=O)nn(CCN)c3c2n1', '=', 282),
  ('CSc1ncc2ccc3c(C(N)=O)nn(CCO)c3c2n1', '=', 221),
  ('CN1CCN(c2ccc(Oc3ncc4ccc5c(C(N)=O)nn(CCO)c5c4n3)cc2)CC1', '=', 1300);
